// values below are reported IC50
target: T1, human BR3 expressed on cells (human, UniProt Q96RJ3 1-184); assay: BJAB cells, competition with biotin-BAFF
T1 construct: whole, on cells; also called BR3 on BJAB cells; cell surface BR3
Write down the numeric answer in nM and omit the unit.

Below: 2 binders and their reported IC50.
binder	readout-unit	IC50
Hu9.1-88 IgG (antibody, V domains shown, humanized IgG; also called h9.1-88) VH: EVQLVESGGGLVQPGGSLRLSCAASGFPVTGSYVSWVRQAPGKGLEWVGFIRDKANGYTTEYNPSVKGRFTISRDTSKNTLYLQMNSLRAEDTAVYYCAQVRRALDYWGQGTLVTVSS VL: DIQMTQSPSSLSASVGDRVTITCKSSQSLLYSSNQNNYLAWYQQKPGKAPKLLIYWASTRESGVPSRFSGSGSGTDFTLTISSLQPEDFATYYCQQYYTYPYTFGQGTKVEIKR	nM	0.6
V3-46s IgG (antibody, V domains shown, also called hV3-46S; HuV3-46s-IgG) VH: EVQLVESGGGLVQPGGSLRLSCAASGFTISSSSIHWVRQAPGKGLEWVAWVLPSVGFTDYADSVKGRFTISADTSKNTAYLQMNSLRAEDTAVYYCARRVCYNRLGVCAGGMDYWGQGTLVTVSS VL: DIQMTQSPSSLSASVGDRVTITCRASQDVSTAVAWYQQKPGKAPKLLIYSASFLYSGVPSRFSGSGSGTDFTLTISSLQPEDFATYYCQQSQISPPTFGQGTKVEIKR	nM	1.9

API: the following record is the query input.
Determine from records and report IC50 for V3-1m (antibody, mouse IgG2a, V domains shown, also called mV3-1; V3-1 (IgG)) VH: EVQLVESGGGLVQPGGSLRLSCAASGFTISSNSIHWVRQAPGKGLEWVAWITPSDGNTDYADSVKGRFTISADTSKNTAYLQMNSLRAEDTAVYYCARRVCYNRLGVCAGGMDYWGQGTLVTVSS VL: DIQMTQSPSSLSASVGDRVTITCRASQDVSTAVAWYQQKPGKAPKLLIYSASFLYSGVPSRFSGSGSGTDFTLTISSLQPEDFATYYCQQSRITPPTFGQGTKVEIKR
8.9
